Tested on: HepG2 cells
test_name: In vitro cytotoxicity, MTT assay
Format: cell-based
experimental_context: HepG2, MTT, 0–1000 µg/mL, 24 h

compound | Status
Cc1cccc2cc(C=NNC(=S)Nc3cccc(Cl)c3)c(N3CCCCC3)nc12 [Compound 6f] | Proliferative
Cc1cccc2cc(C=NNC(=S)Nc3ccc(Cl)cc3)c(N3CCCCC3)nc12 [Compound 6g] | Proliferative
Cc1cccc2cc(C=NNC(=S)NCCN3CCOCC3)c(N3CCCCC3)nc12 [Compound 6m] | Cytotoxic
Cc1cccc2cc(C=NNC(=S)Nc3ccccc3)c(N3CCCCC3)nc12 [Compound 6b] | Cytotoxic
Cc1ccc2nc(N3CCCCC3)c(C=NNC(=S)Nc3cccc(Cl)c3)cc2c1 [Compound 5f] | Cytotoxic

---

test_name: In vitro cytotoxicity, MTT assay
Format: cell-based
experimental_context: human, HepG2 cells; HepG2, 100 μg/mL, 24 h, control = 100; read-out: Cell Viability
This listing pairs compounds with measured viability at 24 h, 100 μg/mL.
reported_property: viability at 24 h, 100 μg/mL (%)

query_smiles | unit_tag | number
Cc1ccc2nc(N3CCCCC3)c(C=NNC(=S)NCCN3CCOCC3)cc2c1 | % | 102
Cc1ccc2nc(N3CCCCC3)c(C=NNC(=S)Nc3c(C)cccc3C)cc2c1 | % | 108
Cc1ccc2nc(N3CCCCC3)c(C=NNC(=S)Nc3ccccc3F)cc2c1 | % | 121

---

pIC50: −log10 of the molar value.
The next entries give measured pIC50 for Acetylcholinesterase (AChE) (Electrophorus electricus, UniProt O42275).
reported_property: pIC50

query_smiles | experimental_system | number
CCc1ccc(NC(=S)NN=Cc2cc3cc(C)ccc3nc2N2CCCCC2)cc1 | Acetylcholinesterase (AChE) (Electrophorus electricus, UniProt O42275) | 4.51
Cc1cccc2cc(C=NNC(=S)NCc3ccccc3)c(N3CCCCC3)nc12 | Acetylcholinesterase (AChE) (Electrophorus electricus, UniProt O42275) | 4.24
Cc1ccc2nc(N3CCCCC3)c(C=NNC(=S)Nc3c(C)cccc3C)cc2c1 | Acetylcholinesterase (AChE) (Electrophorus electricus, UniProt O42275) | 4.59
Cc1ccc2nc(N3CCCCC3)c(C=NNC(=S)Nc3ccc(Cl)cc3)cc2c1 | Acetylcholinesterase (AChE) (Electrophorus electricus, UniProt O42275) | 4.70
Cc1cccc2cc(C=NNC(=S)NCCN3CCOCC3)c(N3CCCCC3)nc12 | Acetylcholinesterase (AChE) (Electrophorus electricus, UniProt O42275) | 4.68

---

experimental_system: Acetylcholinesterase (AChE) (Electrophorus electricus, UniProt O42275)
Sequence (O42275 24-633): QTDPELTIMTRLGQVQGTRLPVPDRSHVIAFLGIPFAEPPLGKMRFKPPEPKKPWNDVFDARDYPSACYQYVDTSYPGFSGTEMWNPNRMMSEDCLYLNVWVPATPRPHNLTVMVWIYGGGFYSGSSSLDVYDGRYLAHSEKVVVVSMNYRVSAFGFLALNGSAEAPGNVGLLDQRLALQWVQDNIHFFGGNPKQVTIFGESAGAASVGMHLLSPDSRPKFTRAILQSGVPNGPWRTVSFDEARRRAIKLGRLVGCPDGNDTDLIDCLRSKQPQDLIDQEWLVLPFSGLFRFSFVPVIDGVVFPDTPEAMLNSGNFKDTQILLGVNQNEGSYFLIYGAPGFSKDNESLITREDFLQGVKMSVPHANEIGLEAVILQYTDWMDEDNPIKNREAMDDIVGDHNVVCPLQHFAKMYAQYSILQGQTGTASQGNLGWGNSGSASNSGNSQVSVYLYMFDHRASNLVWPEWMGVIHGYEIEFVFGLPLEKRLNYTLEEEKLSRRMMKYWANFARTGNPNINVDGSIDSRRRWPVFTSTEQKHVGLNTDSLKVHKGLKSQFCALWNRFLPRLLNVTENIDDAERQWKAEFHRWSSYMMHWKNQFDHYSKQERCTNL
Lab note - cut at 30 µM for IC50: T if strictly below, F if not.

query_smiles | class_name
Cc1ccc(NC(=S)NN=Cc2cc3cc(C)ccc3nc2N2CCCCC2)c(C)c1 | F
Cc1cccc2cc(C=NNC(N)=S)c(N3CCCCC3)nc12 | F
Cc1ccc2nc(N3CCCCC3)c(C=NNC(=S)Nc3cccc(Cl)c3)cc2c1 | T
Cc1ccc2nc(N3CCCCC3)c(C=NNC(=S)Nc3ccccc3)cc2c1 | T
Cc1cccc2cc(C=NNC(=S)Nc3cccc(F)c3)c(N3CCCCC3)nc12 | T
Cc1ccc2nc(N3CCCCC3)c(C=NNC(=S)Nc3ccc(F)cc3)cc2c1 | T
Cc1cccc2cc(C=NNC(=S)Nc3ccccc3)c(N3CCCCC3)nc12 | T
Cc1ccc2nc(N3CCCCC3)c(C=NNC(N)=S)cc2c1 | T
Cc1cccc2cc(C=NNC(=S)Nc3ccccc3Cl)c(N3CCCCC3)nc12 | F
Cc1ccc2nc(N3CCCCC3)c(C=NNC(=S)NCCN3CCOCC3)cc2c1 | F
CCc1ccc(NC(=S)NN=Cc2cc3cccc(C)c3nc2N2CCCCC2)cc1 | F
Cc1ccc2nc(N3CCCCC3)c(C=NNC(=S)Nc3ccccc3F)cc2c1 | F
Cc1cccc2cc(C=NNC(=S)Nc3ccc(F)cc3)c(N3CCCCC3)nc12 | F
Cc1ccc(NC(=S)NN=Cc2cc3cccc(C)c3nc2N2CCCCC2)c(C)c1 | F
Cc1ccc2nc(N3CCCCC3)c(C=NNC(=S)Nc3ccccc3Cl)cc2c1 | F
Cc1cccc2cc(C=NNC(=S)Nc3ccccc3F)c(N3CCCCC3)nc12 | F
Cc1ccc2nc(N3CCCCC3)c(C=NNC(=S)NCc3ccccc3)cc2c1 | F
Cc1ccc2nc(N3CCCCC3)c(C=NNC(=S)Nc3cccc(F)c3)cc2c1 | T
